All values here come from patent US10695337B2.

- MEASUREMENT_TARGET: human JAK1 (a.a. 837-1142)
- METHOD_DESCRIPTION: In vitro JAK kinase assay (HTRF, phosphorylation of a biotinylated peptide), JAK1
- Assay type: biochemical
- RECORDED_CONDITIONS: measured at 1 mM ATP; JAK2 IC50 / JAK1 IC50
EXPERIMENTAL_ENDPOINT: IC50 Ratio JAK2/JAK1

Solved entries:
> print(dat)
                                   compound  observed.result
1  N#CCC1(n2cc(-c3ncnc4[nH]ccc34)cn2)CN(C2CC3CCC(C2)N3C(=O)c2ccc(Cl)c(F)c2)C1 (stereo not shown)              6.2
2  N#CCC1(n2cc(-c3ncnc4[nH]ccc34)cn2)CN(C2CCN(Cc3ccc(C#N)c(F)c3)CC2)C1              6.4
3  N#CCC1(n2ccc(-c3ncnc4[nH]ccc34)c2)CN(C2CCN(C(=O)c3ccc(F)c(F)c3)CC2)C1              9.8
4  N#CCC1(n2cc(-c3c(F)cnc4[nH]ccc34)cn2)CN(C2CCN(C(=O)c3ccncc3F)CC2)C1              2.8
5  COc1cc(C(=O)N2CCC(N3CC(CC#N)(n4cc(-c5ncnc6[nH]ccc56)cn4)C3)CC2)ccc1F              3.3

(P) N#CCC1(n2cc(-c3ccnc4[nH]ccc34)cn2)CN(C2CCN(C(=O)c3ccc(C#N)cc3F)CC2)C1
(Q) N#CCC1(n2cc(-c3c(C#N)cnc4[nH]ccc34)cn2)CN(C2CCN(C(=O)c3cc(Br)cc(Br)c3)CC2)C1
Input: Form field 'greater IC50 Ratio JAK2/JAK1' accepts P or Q ; which applies? Use the label to indicate which entry you chose.
Output: P
(P: 5.1, Q: 2.9)
